Data origin: PubChem BioAssay (NCI)

# Test system: OVCAR-5 ovarian
# measurement-description: NCI-60 one-dose screen, 48 h
# condition-label: 10 µM unless noted
Compounds without any hit were thinned out: in the full panel of roughly 83,000, 20% have a hit. Calls of active or inactive are those of the source. The calls were made as follows: active = growth percent below 10; inactive = the rest.
Labels: true = active, false = inactive

[
  {
    "compound": "O=C1Nc2ccccc2/C1=C/C(=N/c1nnc(-c2ccccc2)s1)c1ccccc1",
    "assigned-category": "false"
  },
  {
    "compound": "COc1cc(C2CC(=O)Nc3c2c(C)nn3-c2nc3ccccc3[nH]2)cc(OC)c1OC (centres undefined)",
    "assigned-category": "false"
  },
  {
    "compound": "CN(C)CC(=O)Nc1ccc(Cn2nnc3c2C(=O)c2nnn(Cc4ccc(NC(=O)CN(C)C)cc4)c2C3=O)cc1",
    "assigned-category": "true"
  },
  {
    "compound": "COc1ccccc1/C=C(/C(=O)c1ccccc1)c1ccccc1",
    "assigned-category": "false"
  },
  {
    "compound": "COc1cc(/C=N\\NC(=O)CN2CCN(c3cc4c(cc3F)c(=O)c(C(=O)N/N=C/c3ccc(O)c(OC)c3)cn4C3CC3)CC2)ccc1O",
    "assigned-category": "false"
  },
  {
    "compound": "O=C(Nc1ccc(F)cc1)Nc1ccc(CCO)cc1",
    "assigned-category": "false"
  },
  {
    "compound": "CC[C@H](CO)Nc1nc(NCc2ccccc2)n2ncc(C(C)C)c2n1",
    "assigned-category": "false"
  },
  {
    "compound": "CC(C)(C)n1cc(-c2ccnc(NCCNS(=O)(=O)c3ccccc3)c2)c(-c2cccc(O)c2)n1",
    "assigned-category": "false"
  },
  {
    "compound": "CS(=O)(CCCCN=C=S)=NC(=O)c1c(F)c(F)c(F)c(F)c1F (centres undefined)",
    "assigned-category": "false"
  }
]

----------
# growth values compiled below
# Test system: NCI-H460 lung
# measurement-description: NCI-60 one-dose screen, 48 h (100 = growth as untreated, 0 = no growth, -100 = all killed)
# condition-label: 10 µM unless noted
This is part of a sample that, as a whole, favours compounds with a hit. Of some 83,000 tested, about 20% had one in any assay. Active and inactive are the calls of the source. The calls were made as follows: active = growth percent below 10; inactive = the rest.
readout-label: growth

[
  {
    "molecule": "O=C1Nc2ccccc2C12CC(c1ccc(Cl)cc1)=NN2 (stereo not given)",
    "result": "97.9% (inactive)"
  },
  {
    "molecule": "COc1cc(/C=N/N(C)C)ccc1O",
    "result": "105% (inactive)"
  },
  {
    "molecule": "CN1CCOCCOCCOc2ccccc2NC(=O)c2nc(cnc2N)-c2ccc(cc2)S1(=O)=O",
    "result": "34.3% (inactive)"
  },
  {
    "molecule": "O=C1c2cc3c(cc2-c2c1c1cc(F)c(F)cc1c(=O)n2C[C@H](O)CO)OCO3",
    "result": "1.39% (active)"
  },
  {
    "molecule": "CCOC(=O)c1ccc2c(c1)nc(/C=C/c1ccc(Cl)cc1)n2-c1cc(C(C)(C)C)[nH]n1",
    "result": "59% (inactive)"
  },
  {
    "molecule": "COc1cccc(-c2nc3sccn3c2-c2ccnc(NCCCNS(=O)(=O)c3ccccc3)c2)c1",
    "result": "38.3% (inactive)"
  },
  {
    "molecule": "CCOC(=O)/C=C/C(=O)[C@H](CC(C)C)NC(=O)[C@H](Cc1ccccc1)NC(=O)OCc1ccccc1",
    "result": "84.9% (inactive)"
  },
  {
    "molecule": "COc1ccc2nc3cc(Cl)ccc3c(N3CCN(c4ccnc(N5CCN(C)CC5)n4)CC3)c2c1",
    "result": "64.7% (inactive)"
  },
  {
    "molecule": "COc1ccc(-c2c3c(nc4n[nH]c(-c5ccc(Cl)cc5)c24)-c2ccccc2C(=O)C3=O)cc1",
    "result": "-12.9% (active)"
  },
  {
    "molecule": "CCn1cc2c(cc1=O)-c1nc3ccccc3c3ccnc(c13)C2=O",
    "result": "2.86% (active)"
  },
  {
    "molecule": "COc1cc(OC)c(/C=C/S(=O)(=O)Cc2ccc(OC)c(N)n2)c(OC)c1",
    "result": "8.27% (active)"
  },
  {
    "molecule": "COc1ncc(-c2ccc3ncnc(Nc4cccc(Cl)c4)c3c2)cc1NS(C)(=O)=O",
    "result": "28.3% (inactive)"
  },
  {
    "molecule": "Cc1cc(=O)oc2cc(Oc3nc(-c4ccc(Cl)cc4)cn4c(-c5ccc(Cl)cc5)cnc34)ccc12",
    "result": "93.3% (inactive)"
  },
  {
    "molecule": "NS(=O)(=O)c1ccc(-n2ncc3c(=O)[nH]c(CN4CCN(c5cc6c(cc5F)c(=O)c(C(=O)O)cn6C5CC5)CC4)nc32)cc1",
    "result": "101% (inactive)"
  },
  {
    "molecule": "COc1cccc(NC(=O)c2sc3nc4c(cc3c2N)CN(Cc2ccccc2)CC4)c1",
    "result": "45.6% (inactive)"
  },
  {
    "molecule": "CS(=O)(=O)c1c(Nc2ccccc2)n[nH]c1N",
    "result": "110% (inactive)"
  },
  {
    "molecule": "C=C1C(=O)O[C@H]2[C@H]1CC/C(Cn1cc(Cn3ccc4ccccc43)nn1)=C\\CC[C@@]1(C)O[C@@H]21",
    "result": "86.5% (inactive)"
  },
  {
    "molecule": "COc1ccc(CCN2CC=Cn3c2nc2ccccc2c3=O)cc1",
    "result": "5.96% (active)"
  },
  {
    "molecule": "O=C1c2cc3c(cc2-c2c1c1cc(Cl)c(Cl)cc1c(=O)n2CCCn1ccnc1)OCO3",
    "result": "6.51% (active)"
  },
  {
    "molecule": "NCCN1CCN(c2nccc(-c3ccc4ccccc4c3)n2)CC1",
    "result": "17.6% (inactive)"
  }
]

----------
# System: SK-MEL-28 melanoma
# measurement-description: NCI-60 one-dose screen, 48 h (100 = growth as untreated, 0 = no growth, -100 = all killed)
# condition-label: 10 µM unless noted
Compounds without any hit were thinned out: in the full panel of roughly 83,000, 20% have a hit.
Decision: growth compared against 80%; not below it gives class 1, below it gives class 0.

[
  {
    "molecule": "C=C1CC[C@@H]2[C@](C)(COC(C)=O)[C@H](OC(C)=O)CC[C@@]2(C)[C@@H]1CC(Nc1ccc(S(=O)(=O)Nc2nc(C)cc(C)n2)cc1)C1=CCOC1=O (some centres undefined)",
    "assigned-category": "class 1"
  },
  {
    "molecule": "C=C1CC2(OC1=O)C(=O)N(CCCCCCCN1C(=O)C3(CC(=C)C(=O)O3)c3ccccc31)c1ccccc12 (centres undefined)",
    "assigned-category": "class 0"
  },
  {
    "molecule": "Nc1c(C(=O)Nc2cccc3c2OCCO3)sc2nc3c(cc12)C(=O)CCC3",
    "assigned-category": "class 0"
  },
  {
    "molecule": "CCCCNC(=O)NS(=O)(=O)c1ccc(N2N=C(c3cc(C)ccc3C)CC2c2cc(OC)c(OC)c(OC)c2)cc1 (centres undefined)",
    "assigned-category": "class 0"
  },
  {
    "molecule": "COCCOc1ccc(-c2nc3ccc(-c4nc5ccc(N6CCN(C)CC6)cc5[nH]4)cc3[nH]2)cc1",
    "assigned-category": "class 0"
  },
  {
    "molecule": "Cc1ccc(S(=O)(=O)n2cc(-c3csc(-c4cn(C)c5ncccc45)n3)c3ccccc32)cc1",
    "assigned-category": "class 0"
  },
  {
    "molecule": "COc1cc2cc(COc3nccc(-c4ccc(Cl)cc4)n3)c(=O)[nH]c2cc1OC",
    "assigned-category": "class 0"
  },
  {
    "molecule": "Nc1c(C(=O)Nc2ccccc2Cl)sc2nc3c(cc12)CCCCCC3",
    "assigned-category": "class 0"
  },
  {
    "molecule": "COc1ccc(C(=O)/C=C/c2c[n+](=O)c3ccc(F)cc3n2[O-])cc1",
    "assigned-category": "class 1"
  },
  {
    "molecule": "COc1cnc2c(c1)C(=O)c1c-2n(CCCN2CCCC2)c(=O)c2cc([N+](=O)[O-])ccc12",
    "assigned-category": "class 0"
  },
  {
    "molecule": "CCN(CC)CC#CCOC(=O)[C@]1(C)CCC[C@@]2(C)[C@H]1CC(C=O)=C1C=C(C(C)C)CC[C@@H]12",
    "assigned-category": "class 1"
  },
  {
    "molecule": "O=C(CO[N+](=O)[O-])Nc1ccc(C(=O)/C=C/c2ccc3c(c2)OCO3)cc1",
    "assigned-category": "class 1"
  },
  {
    "molecule": "Cc1cc(Cl)ccc1Nc1nc(C(F)(F)F)ccc1C(=O)N/N=C/c1ccc(F)cc1",
    "assigned-category": "class 0"
  },
  {
    "molecule": "NC(N)=Nc1ccc(S(=O)(=O)O)cc1",
    "assigned-category": "class 1"
  },
  {
    "molecule": "COc1ccc(C2CC(=O)Nc3c2c(C)nn3-c2nc3ccccc3[nH]2)cc1 (centres undefined)",
    "assigned-category": "class 1"
  },
  {
    "molecule": "Cc1ccc(N)cc1F",
    "assigned-category": "class 1"
  },
  {
    "molecule": "O=[N+]([O-])c1cccc(-c2nc3sccn3c2-c2ccnc(NCCCNS(=O)(=O)c3ccc(Br)cc3)n2)c1",
    "assigned-category": "class 0"
  },
  {
    "molecule": "O=C1c2cc3c(cc2-c2c1c1cc(F)c(F)cc1c(=O)n2C[C@H](O)CO)OCO3",
    "assigned-category": "class 0"
  }
]
